targetUnderTest: T1, human ROR1 (hROR1) on cells (human, UniProt Q01973 30-937)
T1 construct: whole, on cells; the cell line is named under assay; also called HEK293T-hROR1; 293T-hROR1
T1 sequence (Q01973 30-937): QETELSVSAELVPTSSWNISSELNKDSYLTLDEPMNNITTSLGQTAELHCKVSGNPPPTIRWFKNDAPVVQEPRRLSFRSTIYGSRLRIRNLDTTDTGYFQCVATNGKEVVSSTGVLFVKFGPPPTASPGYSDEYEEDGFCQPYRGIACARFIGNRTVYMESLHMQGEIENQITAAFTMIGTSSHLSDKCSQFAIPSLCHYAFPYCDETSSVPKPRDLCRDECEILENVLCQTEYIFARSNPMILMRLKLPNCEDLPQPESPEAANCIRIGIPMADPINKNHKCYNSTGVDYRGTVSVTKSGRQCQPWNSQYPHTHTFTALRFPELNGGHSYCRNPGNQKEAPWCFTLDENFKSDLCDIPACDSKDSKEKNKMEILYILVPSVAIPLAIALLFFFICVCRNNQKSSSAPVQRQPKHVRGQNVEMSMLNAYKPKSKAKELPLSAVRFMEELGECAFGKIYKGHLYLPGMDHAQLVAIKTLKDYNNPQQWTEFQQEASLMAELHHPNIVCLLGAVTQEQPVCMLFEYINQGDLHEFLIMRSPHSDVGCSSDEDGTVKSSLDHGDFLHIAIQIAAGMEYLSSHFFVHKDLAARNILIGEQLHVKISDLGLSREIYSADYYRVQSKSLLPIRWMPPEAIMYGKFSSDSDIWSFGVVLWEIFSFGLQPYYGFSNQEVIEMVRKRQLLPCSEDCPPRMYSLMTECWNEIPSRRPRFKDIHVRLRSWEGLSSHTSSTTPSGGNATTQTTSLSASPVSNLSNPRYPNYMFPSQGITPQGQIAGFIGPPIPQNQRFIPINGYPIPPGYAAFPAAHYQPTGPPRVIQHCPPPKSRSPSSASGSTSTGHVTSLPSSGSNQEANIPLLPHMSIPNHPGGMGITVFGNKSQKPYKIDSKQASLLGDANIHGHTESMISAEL
measurementNotes: FACS, HEK293T-hROR1 cells; cytometer saturated
Listed here: items and their measured MAX(MFI).
Give the value in MFI but do not write MFI after it.

| binder | assayMetric | observedMeasurement |
| --- | --- | --- |
| PR001352 (antibody, human IgG1, kappa, V domains shown, fully human IgG1, kappa) VH: EVQLLESGGGVVQPGRSLRLSCAASGFTFSSYGMHWVRQAPGKGLEWVAVKWYDGISQNFADSVKGRFTISRDNSKNTLYLQMNSLRAEDTAVYYCARDLARSFDLWGRGTLVTVSS VL: DIQLTQSPSSLSASVGDRVTITCRASQTINNWLAWYQQKPGKAPKLLIYKASSLESGVPSRFSGSGSGTEFTLTISSLQPDDFATYYCQQYNSYSPMYTFGQGTKVEIKR | MAX(MFI) | 262000 |
| Positive control antibody (PR000374) (antibody, human IgG1, kappa, V domains shown) VH: EVQLVESGGGLVQPGRSLRLSCTASGSDINDYPITWVRQAPGQGLEWIGFINSGGSTWYASWVKGRFTISRDDSKSIAYLQMNSLKTEDTAVYYCARGYSTYYRDFNIWGQGTLVTVSS VL: DIQMTQSPSSLSASVGDRVTINCQASQSIDSNLAWFQQKPGQPPKLLIYRASNLASGVPDRFSGSGSGTDFTLTISSLEAEDVATYYCLGGVGAVSYRTSFGGGTKVEIKR | MAX(MFI) | 262000 |

Please turn your attention to the following entry.
Given PR001356 (antibody, human IgG1, kappa, V domains shown, fully human IgG1, kappa; also called anti-ROR1 1015M2-E6 hIgG1; PR001356(WT)) VH: QVQLVESGGGVVQPGRSLRLSCAASGFTFSSYGMHWVRQAPGKGLEWVAVAWYDGVSEDYADSVKGRFTISRDNAKNTLYLQMNSLRAEDTAVYYCAREQARSFDLWGRGTLVTVSS VL: DIVMTQSPSTLSASVGDRVTITCRASQSINNWLAWYQQKPGKAPKLLIYKASSLESGVPSRFSGSGSGTEFTLTISSLQPDDFATYYCQQYKSYSPMYTFGQGTKVEIKR , state its recorded MAX(MFI). 262000

The reported numbers originate from patent US20240010721A1.
